target: Cynomolgus T cell receptor on cynomolgus primary T cells (cynomolgus monkey)
assay_procedure: cell-based or functional assay
endpoint: EC50 (M), T cell mediated MOLM-13 cell killing, cynomolgus primary T cells, E:T 10:1
Answer with a number only, understood to be in M.

q: Look up EC50 (M), T cell mediated MOLM-13 cell killing, cynomolgus primary T cells, E:T 10:1 for this binder: T017000636 (bispecific antibody) DVQLVESGGGVVQPGGSLRLSCVASWDVHQINFYGWYRQAPGKEREKVAHISIGDQTDYADSAKGRFTISRDESKNTVYLQMNSLRPEDTALYYCRALSRIWPYDYWGQGTLVTVSSGGGGSGGGGSGGGGSGGGGSGGGGSGGGGSGGGGSEVQLVESGGGLVQAGGSLRLSCAASGITSKINDMGWYRQTPGNYREWVASITATGTTNYRDSVKGRFTISRDNAKSTVYLQMNSLKPEDTTVYYCNTFPPISNFWGQGTLVTVSSA
a: 6.7e-11
